molecular target: pERK1/2 (Thr202/Tyr204), NCI-1H358 (KRAS G12C) (Homo sapiens, UniProt P01116, G12C); construct: pERK1/2 HTRF read-out; assay: Assay of intracellular pERK1/2 (Thr202/Tyr204) phosphorylation in NCI-H358 cells (KRAS G12C); type: cell-based; conditions: pERK1/2, 2 days, read-out: NCI-H358 (KRAS G12C) IC50
Sequence (P01116 1-188 isoform P01116-2 G12C): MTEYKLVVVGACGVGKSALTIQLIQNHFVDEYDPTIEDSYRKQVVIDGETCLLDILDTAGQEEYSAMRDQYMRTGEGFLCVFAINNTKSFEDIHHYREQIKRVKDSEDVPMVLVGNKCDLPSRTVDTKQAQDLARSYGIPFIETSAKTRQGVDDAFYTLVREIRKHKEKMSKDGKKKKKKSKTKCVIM
pIC50: −log10 of the molar value.
Reported property: pIC50

CC(c1cccnc1N)N1c2nc(OC[C@@]34CCCN3C[C@H](F)C4)nc3c(F)c(-c4c(C(F)(F)F)c(Cl)cc5[nH]ncc45)nc(c23)OC[C@@H]1C (single isomer, unassigned) : 9.40
Cc1cc(N)cc(-c2nc3c4c(nc(OC[C@@]56CCCN5C[C@H](F)C6)nc4c2F)N(C(C)c2cc(F)cnc2N)CCO3)c1C(F)(F)F (stereo partly drawn) : 9.30
